Target: mAChR M1 (Homo sapiens)
Sequence (P11229 whole entry, looked up): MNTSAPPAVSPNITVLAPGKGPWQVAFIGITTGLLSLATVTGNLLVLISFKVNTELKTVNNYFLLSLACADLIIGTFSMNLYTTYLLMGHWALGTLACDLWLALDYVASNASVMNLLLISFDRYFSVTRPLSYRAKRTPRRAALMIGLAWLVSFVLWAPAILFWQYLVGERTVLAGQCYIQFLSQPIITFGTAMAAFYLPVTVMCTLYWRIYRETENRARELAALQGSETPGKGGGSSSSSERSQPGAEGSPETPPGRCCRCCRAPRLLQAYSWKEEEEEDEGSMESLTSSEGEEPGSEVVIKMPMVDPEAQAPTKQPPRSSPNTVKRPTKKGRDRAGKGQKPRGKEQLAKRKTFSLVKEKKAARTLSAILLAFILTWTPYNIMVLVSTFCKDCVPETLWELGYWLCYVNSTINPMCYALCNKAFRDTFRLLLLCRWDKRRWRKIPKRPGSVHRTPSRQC
Assay: In vitro cellular calcium flux assay, positive allosteric modulation of mAChR M1
Format: cell-based
Settings: BHK cells expressing mAChR M1; EC20 carbachol; Examples 76-80 and 82-89 slightly modified procedure
measurement.type: pEC50 for positive allosteric modulation
# answer = number (no unit)

Recorded pEC50 for positive allosteric modulation, per entry:
Q: What is its pEC50 for positive allosteric modulation for mAChR M1 (Homo sapiens)? Entry: "COc1cc(Cn2cc(C(=O)N[C@H]3CCCC[C@@H]3O)c3nccc(C)c32)ccn1"
Ans: 7.9

Q: What reported pEC50 for positive allosteric modulation corresponds to "O=C(N[C@H]1CCCC[C@@H]1O)c1cn(Cc2ccncc2)c2cccnc12" on mAChR M1 (Homo sapiens)?
Ans: 6.3

Q: Form entry - test system: mAChR M1 (Homo sapiens); read-out: pEC50 for positive allosteric modulation; compound: "COc1ccc2c(n1)c(C(=O)N[C@H]1CCCC[C@@H]1O)cn2Cc1ccc(F)cc1"
Ans: 5.8

Q: Give pEC50 for positive allosteric modulation (mAChR M1 (Homo sapiens)) of the following compound: "CN1CCC[C@H](NC(=O)c2cn(Cc3ccc(-n4cccn4)cc3)c3cccnc23)C1"
Ans: 7.5

Q: Find the measured pEC50 for positive allosteric modulation: item "O=C(N[C@H]1CCCC[C@@H]1O)c1cn(Cc2cccc(C(F)(F)F)c2)c2cccnc12" , target or system mAChR M1 (Homo sapiens).
Ans: 6.1

Q: Notebook: pull reported pEC50 for positive allosteric modulation for mAChR M1 (Homo sapiens), entry "Cc1cc(Cn2cc(C(=O)N[C@H]3CCCC[C@@H]3O)c3nccc(Cl)c32)ccn1"
Ans: 7.8

Q: Checklist item: pEC50 for positive allosteric modulation tested on mAChR M1 (Homo sapiens), entry "Cc1ccnc2c(C(=O)N[C@H]3CCCC[C@@H]3O)cn(Cc3ccc(Cl)cn3)c12" , value?
Ans: 7.2

Consider now this further compound.
Q: Please state recorded pEC50 for positive allosteric modulation (tested on mAChR M1 (Homo sapiens)) of "COc1ccc(Cn2cc(C(=O)N[C@H]3CCCC[C@@H]3O)c3nccc(C)c32)cn1"
Ans: 7.5
